FYI, the data here is from patent US20150329642A1.

Consider the following binders and their measured pEC50 readings.
# STUDY SYSTEM: T1, human c-Met, membrane-bound on cells (human, UniProt P08581 25-1390)
# T1 construct: whole, on cells; A431 cells carry on average 30,000 copies of c-Met per cell (Qifi); also called c-Met expressed on A431 cells; c-Met on A549 cells
# T1 sequence (P08581 25-1390): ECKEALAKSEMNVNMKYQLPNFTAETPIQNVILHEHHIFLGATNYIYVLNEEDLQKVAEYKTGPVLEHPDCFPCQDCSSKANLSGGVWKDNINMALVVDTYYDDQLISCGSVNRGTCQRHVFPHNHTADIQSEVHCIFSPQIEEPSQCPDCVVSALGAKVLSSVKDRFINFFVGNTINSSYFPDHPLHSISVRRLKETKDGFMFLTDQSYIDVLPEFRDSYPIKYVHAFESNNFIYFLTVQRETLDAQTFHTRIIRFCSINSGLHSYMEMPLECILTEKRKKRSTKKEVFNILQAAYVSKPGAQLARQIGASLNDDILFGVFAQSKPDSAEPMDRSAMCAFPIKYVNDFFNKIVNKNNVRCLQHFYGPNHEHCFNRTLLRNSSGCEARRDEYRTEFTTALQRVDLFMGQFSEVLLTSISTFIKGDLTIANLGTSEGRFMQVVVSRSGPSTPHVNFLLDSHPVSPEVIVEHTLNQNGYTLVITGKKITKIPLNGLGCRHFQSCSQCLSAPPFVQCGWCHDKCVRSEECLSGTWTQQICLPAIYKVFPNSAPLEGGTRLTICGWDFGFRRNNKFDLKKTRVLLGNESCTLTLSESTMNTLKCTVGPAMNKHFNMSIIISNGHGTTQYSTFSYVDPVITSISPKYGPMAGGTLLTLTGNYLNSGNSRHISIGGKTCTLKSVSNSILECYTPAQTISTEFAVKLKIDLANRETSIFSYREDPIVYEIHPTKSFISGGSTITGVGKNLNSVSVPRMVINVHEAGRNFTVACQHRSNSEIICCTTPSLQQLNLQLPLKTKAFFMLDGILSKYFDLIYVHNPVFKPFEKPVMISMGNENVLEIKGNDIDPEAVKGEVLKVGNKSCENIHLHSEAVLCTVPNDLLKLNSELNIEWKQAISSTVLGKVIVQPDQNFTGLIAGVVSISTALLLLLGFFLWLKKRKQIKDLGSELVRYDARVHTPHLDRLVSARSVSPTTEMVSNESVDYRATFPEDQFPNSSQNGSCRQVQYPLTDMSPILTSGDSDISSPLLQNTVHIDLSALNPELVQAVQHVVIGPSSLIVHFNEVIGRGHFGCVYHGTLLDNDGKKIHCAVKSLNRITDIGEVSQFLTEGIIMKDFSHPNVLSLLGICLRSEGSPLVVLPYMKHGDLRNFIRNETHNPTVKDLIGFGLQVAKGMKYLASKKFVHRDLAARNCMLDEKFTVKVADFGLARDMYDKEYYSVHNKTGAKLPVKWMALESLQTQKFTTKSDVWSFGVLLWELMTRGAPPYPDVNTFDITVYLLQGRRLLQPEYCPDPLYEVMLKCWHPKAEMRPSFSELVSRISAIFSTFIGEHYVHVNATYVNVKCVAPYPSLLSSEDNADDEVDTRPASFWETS
# METHOD: flow cytometry on A431 cells (PE goat anti-human IgG); third panel
# Method: The binding of anti-c-Met antibodies and monovalent forms thereof (also termed “UniBody molecules” herein, see Example 5) to A431 cells expressing membrane-bound c-Met (purchased at ATCC, CRL-1555) was tested using flow cytometry (FACS Canto II, BD Biosciences). […] Binding of anti-c-Met antibodies and UniBody molecules was detected using a Phycoerythrin-conjugated goat-anti-human IgG antibody (Jackson). […]
Scale explanation: pEC50 corresponds to minus log10 of a concentration expressed in moles per litre.

BINDER	pEC50
UniBody molecule of antibody 024 (other) VH: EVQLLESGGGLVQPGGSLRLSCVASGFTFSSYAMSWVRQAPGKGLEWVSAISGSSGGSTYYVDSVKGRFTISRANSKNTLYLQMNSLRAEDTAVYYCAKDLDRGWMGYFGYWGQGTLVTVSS VL: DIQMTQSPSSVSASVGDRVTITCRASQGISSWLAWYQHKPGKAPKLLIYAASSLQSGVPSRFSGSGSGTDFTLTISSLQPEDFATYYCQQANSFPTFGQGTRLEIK	8.62

The reported pEC50 of the binder anti-c-Met HuMab 045 (IgG1) (antibody, V domains shown, also called TH1016-045; PC1016-045) VH: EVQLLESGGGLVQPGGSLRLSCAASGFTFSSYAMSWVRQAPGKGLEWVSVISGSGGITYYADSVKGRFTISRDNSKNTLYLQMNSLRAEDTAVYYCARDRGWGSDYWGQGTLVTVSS VL: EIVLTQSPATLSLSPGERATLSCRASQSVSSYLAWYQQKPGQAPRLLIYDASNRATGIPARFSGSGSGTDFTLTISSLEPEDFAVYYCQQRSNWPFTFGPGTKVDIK was 9.16

Input Uni-1016-045-TE (other, also called UniBody molecule of antibody 045) VH: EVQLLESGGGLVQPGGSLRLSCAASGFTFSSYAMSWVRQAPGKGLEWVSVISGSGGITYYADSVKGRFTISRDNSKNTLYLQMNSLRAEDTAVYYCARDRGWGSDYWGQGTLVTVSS VL: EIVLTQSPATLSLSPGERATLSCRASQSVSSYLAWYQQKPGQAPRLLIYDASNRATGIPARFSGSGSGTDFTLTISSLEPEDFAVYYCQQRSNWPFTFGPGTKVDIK . Output pEC50: 7.91

Value of pEC50 reported for the binder UniBody molecule of antibody 035 (other) VH: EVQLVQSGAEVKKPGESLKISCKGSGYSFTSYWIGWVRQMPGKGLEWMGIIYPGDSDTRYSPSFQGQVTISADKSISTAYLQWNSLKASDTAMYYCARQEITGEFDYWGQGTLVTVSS VL: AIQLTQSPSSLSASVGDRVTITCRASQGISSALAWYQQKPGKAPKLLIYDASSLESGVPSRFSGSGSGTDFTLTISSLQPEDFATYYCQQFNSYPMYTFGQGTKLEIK is 8.03
